Target: Polyadenylate-binding protein 1 (Homo sapiens)
Experiment: PABP poly(A) RNA binding inhibitors, primary screen, biochemical, fluorescence polarization, uHTS (AID 2014);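 note: calls also rest on retests at 20 µM and on dose response follow-up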
Conditions: at 35 µM, active compounds read high
Hit rate of the full screen: of about 290,000 compounds, about 3,000 (1%) were called active. This is one part of a sample in which actives are shown more often than they occur.
Overview of recorded inhibition for various compounds
Number only, in %; omit the unit.

Before answering, review these 5 worked examples.
{"columns": ["compound", "endpointName", "readoutUnits", "numericValue"],
 "data": [
  ["COc1ccccc1NC(=O)Nc1nnc(Cc2ccc(F)cc2)s1", "inhibition", "%", -15],
  ["Cc1ccc2sc(N(CCN(C)C)C(=O)/C=C/c3cccs3)nc2c1C", "inhibition", "%", -1.9],
  ["COC(=O)/C=C\\C(=O)Nc1cccc([N+](=O)[O-])c1", "inhibition", "%", 9.4],
  ["O=C(N/N=C/c1ccc([N+](=O)[O-])o1)c1cccc(S(=O)(=O)N2CCOCC2)c1", "inhibition", "%", -5],
  ["Cc1ccc(C(=O)O)cc1-c1ccc(/C=C2\\SC(=O)N(CC(=O)Nc3ccc4c(c3)OCO4)C2=O)o1", "inhibition", "%", 62.5]
]}

Request: Field request: inhibition | item: "Cc1cc(/C=C2\SC(=O)N(C)C2=O)c(C)n1-c1cccc(C(=O)O)c1"
Result: 67.4

Request: Record: "Cc1ccc(/C=C/C(=O)Nc2ccc([N+](=O)[O-])c(NC(=O)/C=C/c3ccc(C)o3)c2)o1"
Result: 0

Request: How about "COc1cc(NC(=O)C2=C(C)OCCS2)c(Cl)cc1C(=O)NCCN1CCN(C)CC1" ?
Result: -8

Request: Also COc1ccc(C(O)(C2CCCCC2)C(CN2CCCC2)c2ccccc2)cc1 (stereo not given) ?
Result: 12.9

Request: Would you kindly repeat that for "O=[N+]([O-])c1cc(Cl)cc(/C=N/NC(=S)Nc2cc(S(=O)(=O)N3CCOCC3)ccc2Cl)c1O" ?
Result: 70.2

====

Target: Polyadenylate-binding protein 1 (Homo sapiens) (UniProt P11940)
Sequence (P11940 whole entry, looked up): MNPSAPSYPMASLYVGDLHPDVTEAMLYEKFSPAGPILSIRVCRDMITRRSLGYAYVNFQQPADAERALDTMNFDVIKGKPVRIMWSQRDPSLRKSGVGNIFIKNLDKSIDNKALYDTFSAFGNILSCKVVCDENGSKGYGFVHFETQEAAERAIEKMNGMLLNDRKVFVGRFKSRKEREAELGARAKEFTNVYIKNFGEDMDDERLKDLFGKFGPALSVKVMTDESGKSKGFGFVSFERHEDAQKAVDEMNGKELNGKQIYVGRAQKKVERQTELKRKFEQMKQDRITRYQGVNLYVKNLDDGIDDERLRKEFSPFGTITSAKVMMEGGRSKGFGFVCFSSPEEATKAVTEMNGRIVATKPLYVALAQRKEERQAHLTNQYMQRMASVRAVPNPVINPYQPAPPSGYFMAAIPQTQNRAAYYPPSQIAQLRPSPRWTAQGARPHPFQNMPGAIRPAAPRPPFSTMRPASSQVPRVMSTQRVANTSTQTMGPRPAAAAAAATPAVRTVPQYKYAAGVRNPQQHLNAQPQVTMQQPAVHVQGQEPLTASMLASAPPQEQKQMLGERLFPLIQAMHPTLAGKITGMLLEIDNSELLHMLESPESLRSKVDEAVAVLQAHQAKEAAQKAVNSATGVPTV
Experiment: PABP poly(A) RNA binding inhibitors, primary screen, biochemical, fluorescence polarization, uHTS (AID 2014);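 note: calls also rest on retests at 20 µM and on dose response follow-up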
Conditions: at 35 µM
Hit rate of the full screen: of about 290,000 compounds, about 3,000 (1%) were called active. How the calls were made is not given here. The full list was thinned out, with actives kept by preference.
// classify into label 1 = active, label 0 = inactive

Consider the worked cases shown below.
{"columns": ["molecule", "assignedCategory"],
 "data": [
  ["O=C(O)C(c1ccccc1)N1C(=O)/C(=C\\c2ccc(-c3cccc(Cl)c3)o2)SC1=S (stereo unspecified)", "label 1"],
  ["O=C(CN1C2=NCCN2c2ccccc21)c1cccs1", "label 1"],
  ["CCCS(=O)(=O)N1CCN=C1SCc1cccc(F)c1", "label 0"]
]}

Now let's try a different one.
Request: How did this test come out for "C/C(=N\NC(=O)COc1ccc(C)cc1[N+](=O)[O-])c1ccc2c(c1)OCCO2" ?
Result: label 0

====

Below: a set of entries, each annotated with reported inhibition.
Molecular target: Polyadenylate-binding protein 1 (Homo sapiens)
Experiment: PABP poly(A) RNA binding inhibitors, primary screen, biochemical, fluorescence polarization, uHTS (AID 2014);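 note: calls also rest on retests at 20 µM and on dose response follow-up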
Conditions: at 35 µM, active compounds read high
Hit rate of the full screen: of about 290,000 compounds, about 3,000 (1%) were called active. The full list was thinned out, with actives kept by preference.
Please give a number only; it is taken to be in %.

Example entries and their recorded answers appear below.
{"columns": ["compound", "inhibition / %"],
 "data": [
  ["Cc1cc(C)c2nc(NC(=O)C3CCCO3)sc2c1 (stereo unspecified)", -13.4],
  ["Cc1ccc(CCCOC(=O)C[N+]2(C)CCCCC2)cc1", 50.6],
  ["O=C(CCN1C(=O)[C@@H]2Cc3ccccc3CN2C1=O)NCc1ccccc1", 1.7],
  ["O=C(CCNS(=O)(=O)c1cccs1)N1CCN(c2ccc(F)cc2)CC1", 2.5],
  ["Cc1ccc(C(=O)NC2CCN(C(=O)Nc3ccccc3Cl)CC2)cc1", 8.2]
]}

Request: Please look up its inhibition: "Cc1nc2ccccc2c(=O)n1Cc1ccc([N+](=O)[O-])cc1"
Result: -8.9

Request: Another compound: "Cc1cccc(C(=O)NNC(=O)CSc2nnc(C(C)C)n2C)c1"
Result: 0.1

Request: Ok, now "O=C(CCCN1CCc2[nH]c3ccc(F)cc3c2C1)c1ccc(F)cc1"
Result: -1.4

Request: Input Cc1ccc(C)c(C(C)NC(=O)C2CCCO2)c1 (stereo unspecified)
Result: 102

Request: Also check "CCNc1c(NS(=O)(=O)c2ccc(C3CCCCC3)cc2)c(=O)oc2ccccc12"
Result: 2.8

Request: Now the compound "Cc1ccc(CCCOC(=O)C[N+]2(C)CCCC2)cc1"
Result: 2.4

// data source = PubChem BioAssay AID2014
